# credit: paper PMC7819943

Reported binding signal by item:
- ASSAY_SYSTEM: OsWRKY34 (Oryza sativa, UniProt Q0JBA9 1-250)
- Sequence (Q0JBA9 entry or part of it): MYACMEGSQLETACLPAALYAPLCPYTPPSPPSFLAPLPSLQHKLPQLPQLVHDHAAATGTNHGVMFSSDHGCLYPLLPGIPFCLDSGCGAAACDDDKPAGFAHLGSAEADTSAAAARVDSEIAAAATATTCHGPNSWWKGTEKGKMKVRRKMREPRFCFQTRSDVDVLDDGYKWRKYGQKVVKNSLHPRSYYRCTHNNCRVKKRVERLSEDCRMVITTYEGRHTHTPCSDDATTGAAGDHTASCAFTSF
- METHOD_DESCRIPTION: protein-binding microarray (RPBM); PBS, 2% BSA, 51.3 ng/ul salmon testes DNA, 50 uM zinc acetate, 200 nM TF, 25 C, 1 h; high values mean tight binding
- DETAILS: protein: recombinant; tags: N-terminal polyhistidine and DsRed monomer fusion (pET32a); label: CyDye5-dUTP incorporated in the synthesized complementary strand; 3' TTTTT single-stranded linker to array surface; dsDNA, one strand shown
Whole data set: some 68,000 sequences, median “fluorescence intensity (a.u.)” near 9,100, cut for the highest 2% near 16,000. The sample holds the highest values, similar sequences and a random draw of the others, so the mix is not that of the screen.

Recorded results for 4 sequences are shown here.
QUERY_SEQUENCE: TTCTTGGCCCGCTAACTCATGATGGTTTTATCCAGATCGTCGGAGTCACCTAGTGCAG
binding signal: 9880 fluorescence intensity (a.u.)
--
QUERY_SEQUENCE: AAGCCAACCCAACCCGCACCTTCTCGCTGCTTCTACTACTCGGAGTCACCTAGTGCAG
binding signal: 13100 fluorescence intensity (a.u.)
--
QUERY_SEQUENCE: GTCTAGTATAAATCAACGCCACACCACTTGCCTAGTCATCCGGAGTCACCTAGTGCAG
binding signal: 8070 fluorescence intensity (a.u.)
--
QUERY_SEQUENCE: TTTCTTAGCTATGTCCTAATTTATTACTGTGCATGTTTCTCGGAGTCACCTAGTGCAG
binding signal: 10900 fluorescence intensity (a.u.)

Kindly review the next sequence as well.
*Q* // Input: TTTTTTGTTTTTTCTTTGAATTCTTTCCTTACGATTTTTGCGGAGTCACCTAGTGCAG . Output its binding signal only.
*A* 13400 fluorescence intensity (a.u.)

----------
- ASSAY_SYSTEM: OsWRKY34 (Oryza sativa, UniProt Q0JBA9 1-250)
- METHOD_DESCRIPTION: protein-binding microarray (RPBM); PBS, 2% BSA, 51.3 ng/ul salmon testes DNA, 50 uM zinc acetate, 200 nM TF, 25 C, 1 h; high values mean tight binding
- DETAILS: protein: recombinant; tags: N-terminal polyhistidine and DsRed monomer fusion (pET32a); label: CyDye5-dUTP incorporated in the synthesized complementary strand; 3' TTTTT single-stranded linker to array surface; dsDNA, one strand shown
In all, about 68,000 sequences were measured (“fluorescence intensity (a.u.)”: median about 9,100, highest 2% from about 16,000 on). For the sample, the highest values were picked, then their nearest neighbours and some sequences at random.
MEASUREMENT_TYPE: binding signal

QUERY_SEQUENCE: AGGAGGGCGGGGTCGTCGTCGTCCGGGGTGGTGGTGGCCGCGGAGTCACCTAGTGCAG
ASSAY_SYSTEM: OsWRKY34 (Oryza sativa, UniProt Q0JBA9 1-250)
binding signal: 17000 fluorescence intensity (a.u.)

Kindly review the next sequence as well.
*Q* State measured binding signal of the sequence AAAAAGTCAACGGCGTCAAACATATTGAAACGGAGGGAGTCGGAGTCACCTAGTGCAG with OsWRKY34 (Oryza sativa, UniProt Q0JBA9 1-250).
*A* 8240 fluorescence intensity (a.u.)
